test system: female Aedes aegypti adults; assay: Arm-in-cage cloth-patch in vivo assay (topical repellency); settings: Mean ± SEM; lowest dosage with five or fewer bites through repellent-treated cloth in 1-minute exposure; at least three volunteers
Please respond with reported Minimum Effective Dose (MED) for every item in the list.
Give bare numbers, in mg/cm^2.

The examples below pair each entry with its known result.
- molecule: "C=CCOC(=O)c1ccccc1N [AA, allyl anthranilate]"
  measurement kind: "Minimum Effective Dose (MED)"
  numeric readout: 0.039
- molecule: "COC(=O)c1ccccc1NC(C)=O [MAcA, methyl N-acetylanthranilate]"
  measurement kind: "Minimum Effective Dose (MED)"
  numeric readout: 0.101
- molecule: "COC(=O)c1ccccc1OC [M2MOB, methyl 2-methoxybenzoate]"
  measurement kind: "Minimum Effective Dose (MED)"
  numeric readout: 0.049
- molecule: "COC(=O)c1cccc(C)c1 [M3MB, methyl 3-methylbenzoate]"
  measurement kind: "Minimum Effective Dose (MED)"
  numeric readout: 0.219
- molecule: "COC(=O)c1ccccc1[N+](=O)[O-] [M2NB, methyl 2-nitrobenzoate]"
  measurement kind: "Minimum Effective Dose (MED)"
  numeric readout: 0.025

# per-item lookup of Minimum Effective Dose (MED); items listed below
1. CCCCOC(=O)c1ccccc1NC=O [nBFA, n-Butyl N-formylanthranilate]
2. CCOC(=O)c1ccccc1N [EA, ethyl anthranilate]
3. COC(=O)c1ccccc1C [M2MB, methyl 2-methylbenzoate]
4. CCOC(=O)c1ccccc1NC=O [EFA, ethyl N-formylanthranilate]
5. COC(=O)c1cccc(OC)c1 [M3MOB, methyl 3-methoxybenzoate]
6. COC(=O)c1ccccc1N [MA, methyl anthranilate]

Outgoing:
[0.0075, 0.037, 0.250, 0.0062, 0.266, 0.027]

###

system: female Aedes aegypti adults; test: Arm-in-cage cloth-patch in vivo assay (topical repellency); details: Mean ± SEM; lowest dosage with five or fewer bites through repellent-treated cloth in 1-minute exposure; at least three volunteers
measurement kind: Minimum Effective Dose (MED) (mg/cm^2)
Numbers only, in mg/cm^2.

- compound: "CCCOC(=O)c1ccccc1 [nPrB, n-propyl benzoate]"
  value unit: "mg/cm^2"
  Minimum Effective Dose (MED): 0.250
- compound: "CCOC(=O)c1cccc(N)c1 [E3AB, ethyl 3-aminobenzoate]"
  value unit: "mg/cm^2"
  Minimum Effective Dose (MED): 0.039

// next entry
Incoming: Minimum Effective Dose (MED) for COC(=O)c1ccccc1N(C)C [MDMA, methyl N,N-dimethyl anthranilate] ?
Outgoing: 0.039

###

test system: female Aedes aegypti adults; experiment: Arm-in-cage cloth-patch in vivo assay (topical repellency); details: Mean ± SEM; lowest dosage with five or fewer bites through repellent-treated cloth in 1-minute exposure; at least three volunteers
measurement kind: Minimum Effective Dose (MED) (mg/cm^2)
Give bare numbers, in mg/cm^2.

- compound: "COC(=O)c1ccccc1NC=O [MFA, methyl N-formylanthranilate]"
  numeric readout: 0.047

Batch request: Minimum Effective Dose (MED) per item, same order as input.
1. COC(=O)c1ccccc1Cl [M2CB, methyl 2-chlorobenzoate]
2. CCCOC(=O)c1ccccc1NC=O [nPrFA, n-Propyl N-formylanthranilate]
3. CCCCOC(=O)c1ccccc1 [nBB, n-butyl benzoate]

Outgoing:
1: 0.164; 2: 0.0028; 3: 0.148
